TEST: Disposition PK parameters fitted to intravenous data from the absolute bioavailability study in healthy volunteers
Format: in vivo, human
CONDITION NOTES: human, plasma; two-compartment model, automatic estimation using PK Plus based on IV data from clinical study, healthy volunteers
Excerpt: PBPK modeling was used to evaluate the effect of changes in gastric pH on dacomitinib absorption. With physicochemical properties (e.g., Log P, pKa, mean precipitation time) and solubility data at different pH for dacomitinib, a two-compartment model coupled to the ACAT model was built using Gastroplus^TM version 9.7 (Simulation Plus, Inc., Lancaster, CA, USA) with default fasted gut physiology. […]
ASSAY ENDPOINT: clearance (mL/min)
Give the quantity in mL/min, number only.

# input What clearance value was documented for this compound, `COc1cc2ncnc(Nc3ccc(F)c(Cl)c3)c2cc1NC(=O)/C=C/CN1CCCCC1` ?
# output 602

These data points were gathered from paper PMC10819565.
